Every entry's value here was drawn from paper PMC4655838.

target: aprataxin FHA domain K38A (residues 1-105); assay: ITC
Sequence (chain, as listed by the source K38A): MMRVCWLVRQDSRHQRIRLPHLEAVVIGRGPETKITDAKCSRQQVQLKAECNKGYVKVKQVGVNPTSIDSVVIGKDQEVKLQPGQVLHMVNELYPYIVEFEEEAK
Square brackets hold non-standard residues; d marks the D form. Ends that are not written are not given here. pT = C[C@@H](OP(=O)(O)O)[C@H](N)C(=O)O; pS = N[C@@H](COP(=O)(O)O)C(=O)O
attribute_measured: pKd
Scale explanation: pKd corresponds to minus log10 of a concentration expressed in moles per litre.

[[record]]
binder = "YDE[pS][pT]DEE[pS]-NH2 (N-terminus assumed; SMILES C[C@@H](OP(=O)(O)O)[C@H](NC(=O)[C@H](COP(=O)(O)O)NC(=O)[C@H](CCC(=O)O)NC(=O)[C@H](CC(=O)O)NC(=O)[C@@H](N)Cc1ccc(O)cc1)C(=O)N[C@@H](CC(=O)O)C(=O)N[C@@H](CCC(=O)O)C(=O)N[C@@H](CCC(=O)O)C(=O)N[C@@H](COP(=O)(O)O)C(N)=O) [XRCC4 229-237 peptide phosphorylated on Ser232, Thr233 and Ser237]"
test_value = 5.89


Now examine the next entry.
Return pKd for the following binder: YAG[pS][pT]DEN[pT]DSEEHQ-NH2 (N-terminus assumed; SMILES C[C@H](NC(=O)[C@@H](N)Cc1ccc(O)cc1)C(=O)NCC(=O)N[C@@H](COP(=O)(O)O)C(=O)N[C@H](C(=O)N[C@@H](CC(=O)O)C(=O)N[C@@H](CCC(=O)O)C(=O)N[C@@H](CC(N)=O)C(=O)N[C@H](C(=O)N[C@@H](CC(=O)O)C(=O)N[C@@H](CO)C(=O)N[C@@H](CCC(=O)O)C(=O)N[C@@H](CCC(=O)O)C(=O)N[C@@H](Cc1c[nH]cn1)C(=O)N[C@@H](CCC(N)=O)C(N)=O)[C@@H](C)OP(=O)(O)O)[C@@H](C)OP(=O)(O)O) [XRCC1 515-529 peptide phosphorylated on Ser518, Thr519 and Thr523] 5.42
